System: HCC 2998
EXPERIMENTAL DETAILS: NCI tumour cell line growth inhibition, 48 h
Calls of active or inactive are those of the source. No stated cut-off is given here; in the data, active = GI50 up to about 1.1 µM and inactive = higher.
In this section we review reported GI50 values for a set of molecules.
QUANTITY: GI50

In [3]: df
Out[3]:
                                   molecule                result
0  COc1ccc(C2=Nc3ccccc3SC(C)C2)cc1OC (stereo unspecified)    18.6 µM (inactive)
1  CC1(O)C(C)(O)C(C)(O)C1(C)O (stereo unspecified)   > 100 µM (inactive)
2  CC1(C(=O)O)CCC2(C)CCC3(C)C(=CC(=O)C4C5(C)CCC(O)C(C)(C)C5CCC43C)C2C1 (stereo unspecified)    23.1 µM (inactive)
3  CCOC(=O)C1=C(C)N(NC(=O)c2ccccc2)C2(O)CCCC12C(=O)OCC (stereo unspecified)   > 100 µM (inactive)
4       Cn1c(O)c(C2=Nc3ccccc3C2=O)c2ccccc21   > 100 µM (inactive)
5  COc1ccccc1C(=O)Nc1ccc(Cl)c(C(=O)OC(C)C)c1  > 63.7 µM (inactive)
